assayed-system: HLA-A*02:01 (Homo sapiens, UniProt P04439, D140Y/D185E/D98H/E176V/E277Q/G131W/G231S/I119V/I121R/I166T/I218V/L300P/L318F/N151K/N90K/P208A/P217A/Q86G/Q94H/R138H/R169H/T345S)
test-description: MHC binding assay (UV-ligand exchange, beta2m ELISA)
cond: binding to HLA-A*02:01, β2m ELISA
metric-name: Peptide exchange (MHC class I binding score, peptide exchange yield)

substance="70 (GLTEKTVLV; listed as Homo sapiens) [compound 70]" observed="++ (≥20% = ++)"
substance="117 (TLLEGISRA; listed as Homo sapiens) [compound 117]" observed="++ (≥20% = ++)"
substance="171 (LLLLDVPTA; listed as Homo sapiens) [compound 171]" observed="++ (≥20% = ++)"
substance="193 (ALFHMNILL; listed as Homo sapiens) [compound 193]" observed="+++ (≥50 = +++)"

Shift focus to the following entry.
Prompt line: Please give measured Peptide exchange (MHC class I binding score, peptide exchange yield) of the following entry: 195 (VIIQNLPAL; listed as Homo sapiens) [compound 195]
Response line: +++ (≥50 = +++)
